// PT lookup, one value per entry
- Organism: Rattus norvegicus
- assayProtocol: Open TG-GATES - Regimen: Single
- Format: toxicity, organism-based, Sprague-Dawley
- Design: regimen Single, gender Male, age 6 weeks
- reportedConditions: in vivo, po, 0 mg/kg, 24 h, tissue Blood, route gavage, dose level Control
Just the number please, in s, no unit attached.

Consider the reported PT for these molecules:
{"molecule": "C[C@](N)(Cc1ccc(O)c(O)c1)C(=O)O [METHYLDOPA]", "PT [s]": 12.8}
{"molecule": "CCSCC[C@H](N)C(=O)O [ETHIONINE]", "PT [s]": 12.1}

For C[C@]12CCC(=O)C=C1CC[C@@H]1[C@@H]2CC[C@@]2(C)[C@H]1CC[C@]2(C)O [METHYLTESTOSTERONE] the molecule record lists PT as 12.9

The value of PT measured for the molecule C#C[C@]1(O)CC[C@H]2[C@@H]3CCc4cc(O)ccc4[C@H]3CC[C@@]21C [ETHINYL ESTRADIOL] turned out to be 12.5

* * *

- Species: Rattus norvegicus
- assayProtocol: Open TG-GATES - Regimen: Daily Repeat
- Assay type: toxicity, organism-based, Sprague-Dawley
- Parameters: regimen Daily Repeat, gender Male, age 6 weeks
- reportedConditions: in vivo, po, 1000 mg/kg, 72 h, tissue Plasma, route gavage, dose level High, time 3 day
Quick list: gamma-GTP per entry.
Form entry: value (IU/L) — number only.

{"compound": "CC(C)(S)[C@@H](N)C(=O)O", "observed": 0.8}
{"compound": "O=C(N[C@H](CO)[C@H](O)c1ccc([N+](=O)[O-])cc1)C(Cl)Cl", "observed": 1}
{"compound": "CCN1CCCC1CNC(=O)c1cc(S(N)(=O)=O)ccc1OC (centres undefined) [SULPIRIDE]", "observed": 1}

Lab note: O=C(O)c1cccnc1 gave gamma-GTP of 1.2

* * *

- Species on record: Rattus norvegicus
- assayProtocol: Open TG-GATES - Regimen: Daily Repeat
- Assay type: toxicity, organism-based, Sprague-Dawley
- Parameters: regimen Daily Repeat, gender Male, age 6 weeks
- reportedConditions: in vivo, po, 300 mg/kg, 72 h, tissue Plasma, route gavage, dose level Middle, time 3 day
testReadout: TP
Write the numeric value and append its unit.

Illustrative cases are given below, each with its answer.
{"molecule": "CC(C)(S)[C@@H](N)C(=O)O", "observed": "5.8 g/dL"}
{"molecule": "CCN1CCCC1CNC(=O)c1cc(S(N)(=O)=O)ccc1OC (centres undefined) [SULPIRIDE]", "observed": "5.7 g/dL"}
{"molecule": "O=C(N[C@H](CO)[C@H](O)c1ccc([N+](=O)[O-])cc1)C(Cl)Cl", "observed": "5.6 g/dL"}

Kindly consider the entry below.
Noted for O=C(O)c1cccnc1 : its TP reads 5.6 g/dL

* * *

- Species on record: Rattus norvegicus
- assayProtocol: Open TG-GATES - Regimen: Daily Repeat
- Format: toxicity, organism-based, Sprague-Dawley
- Design: regimen Daily Repeat, gender Male, age 6 weeks
- reportedConditions: in vivo, po, 100 mg/kg, […], tissue Plasma, route gavage, dose level Low, time 28 day
testReadout: CRE (mg/dL)
All answers are understood in mg/dL, so give the number only.

Would you please look over these solved cases?
{"compound": "O=C(O)c1cccnc1", "CRE [mg/dL]": 0.2}
{"compound": "CC(C)(S)[C@@H](N)C(=O)O", "CRE [mg/dL]": 0.3}
{"compound": "CCN1CCCC1CNC(=O)c1cc(S(N)(=O)=O)ccc1OC (centres undefined) [SULPIRIDE]", "CRE [mg/dL]": 0.3}

// below: CRE requested for another compound
Lookup result for O=C(N[C@H](CO)[C@H](O)c1ccc([N+](=O)[O-])cc1)C(Cl)Cl ; measured CRE: 0.2

* * *

Each record here notes measured Ret.
- Organism: Rattus norvegicus
- assayProtocol: Open TG-GATES - Regimen: Daily Repeat
- Type: toxicity, organism-based, Sprague-Dawley
- Design: regimen Daily Repeat, gender Male, age 6 weeks
- reportedConditions: in vivo, po, 1000 mg/kg, […], tissue Blood, route gavage, dose level High, time 28 day
Express it in %; write the number only.

In the examples that follow, each entry is paired with its recorded Ret.
{"molecule": "O=C(O)c1cccnc1 [NIACIN]", "observed": 2.7}
{"molecule": "CCN1CCCC1CNC(=O)c1cc(S(N)(=O)=O)ccc1OC (centres undefined) [SULPIRIDE]", "observed": 2.5}
{"molecule": "CC(C)(S)[C@@H](N)C(=O)O [PENICILLAMINE]", "observed": 5.6}

What the record says about O=C(N[C@H](CO)[C@H](O)c1ccc([N+](=O)[O-])cc1)C(Cl)Cl [CHLORAMPHENICOL] : Ret is 1.7

* * *

# Lookup of reported MCHC keyed by entry
- Species on record: Rattus norvegicus
- assayProtocol: Open TG-GATES - Regimen: Daily Repeat
- Format: toxicity, organism-based, Sprague-Dawley
- Design: regimen Daily Repeat, gender Male, age 6 weeks
- reportedConditions: in vivo, po, 100 mg/kg, […], tissue Blood, route gavage, dose level Low, time 28 day
// units = %; emit number, no label

{"molecule": "CCN1CCCC1CNC(=O)c1cc(S(N)(=O)=O)ccc1OC (centres undefined) [SULPIRIDE]", "uom": "%", "MCHC": 34.2}
{"molecule": "CC(C)(S)[C@@H](N)C(=O)O [PENICILLAMINE]", "uom": "%", "MCHC": 34.6}
{"molecule": "O=C(O)c1cccnc1 [NIACIN]", "uom": "%", "MCHC": 35.3}

Please examine the following record next.
MCHC reading for O=C(N[C@H](CO)[C@H](O)c1ccc([N+](=O)[O-])cc1)C(Cl)Cl [CHLORAMPHENICOL] : 34.2

* * *

- Organism: Rattus norvegicus
- assayProtocol: Open TG-GATES - Regimen: Single
- Type: toxicity, organism-based, Sprague-Dawley
- Set-up: regimen Single, gender Male, age 6 weeks
- reportedConditions: in vivo, po, 0 mg/kg, 3 h, tissue Plasma, route gavage, dose level Control
Reported DBIL values are given for each entry in this list.
Hi! Could you send only the number? It should be in mg/dL, unit omitted.

{"molecule": "CCC(C)(C)C(=O)O[C@H]1C[C@@H](C)C=C2C=C[C@H](C)[C@H](CC[C@@H]3C[C@@H](O)CC(=O)O3)[C@H]21", "observed": 0.02}
{"molecule": "C[C@](N)(Cc1ccc(O)c(O)c1)C(=O)O", "observed": 0.022}
{"molecule": "CCSCC[C@H](N)C(=O)O", "observed": 0.066}
{"molecule": "C#C[C@]1(O)CC[C@H]2[C@@H]3CCc4cc(O)ccc4[C@H]3CC[C@@]21C", "observed": 0.02}

# DBIL (molecule: Oc1ncnc2[nH]ncc12 ) is 0.058

DBIL for CN1C(=O)OC(C)(C)C1=O is 0.006

For record C[C@]12CCC(=O)C=C1CC[C@@H]1[C@@H]2CC[C@@]2(C)[C@H]1CC[C@]2(C)O the listed DBIL is 0.01

The reported value for O=C(N[C@H](CO)[C@H](O)c1ccc([N+](=O)[O-])cc1)C(Cl)Cl in terms of DBIL is 0.012

Looking up CC(C)C(=O)Nc1ccc([N+](=O)[O-])c(C(F)(F)F)c1 [FLUTAMIDE] , I see its DBIL listed as 0.3

* * *

- Organism: Rattus norvegicus
- assayProtocol: Open TG-GATES - Regimen: Daily Repeat
- Type: toxicity, organism-based, Sprague-Dawley
- Set-up: regimen Daily Repeat, gender Male, age 6 weeks
- reportedConditions: in vivo, po, 0 mg/kg, […], tissue Blood, route gavage, dose level Control, time 28 day
testReadout: Lym (%)
Numbers only; they are read as %.

Here is how some compounds turned out for Lym.
{"compound": "CCC(C)(C)C(=O)O[C@H]1C[C@@H](C)C=C2C=C[C@H](C)[C@H](CC[C@@H]3C[C@@H](O)CC(=O)O3)[C@H]21 [SIMVASTATIN]", "Lym, %": 85.6}
{"compound": "CC(C)(S)[C@@H](N)C(=O)O [PENICILLAMINE]", "Lym, %": 79.2}
{"compound": "C#C[C@]1(O)CC[C@H]2[C@@H]3CCc4cc(O)ccc4[C@H]3CC[C@@]21C [ETHINYL ESTRADIOL]", "Lym, %": 79.4}
{"compound": "C[C@](N)(Cc1ccc(O)c(O)c1)C(=O)O [METHYLDOPA]", "Lym, %": 74.4}
{"compound": "CC(C)C(=O)Nc1ccc([N+](=O)[O-])c(C(F)(F)F)c1 [FLUTAMIDE]", "Lym, %": 82.8}

Quick note, Lym for O=C(O)c1cccnc1 [NIACIN] landed at 80.6

Per the record, CCN1CCCC1CNC(=O)c1cc(S(N)(=O)=O)ccc1OC (stereo unspecified) [SULPIRIDE] has Lym of 77.4

Recorded Lym (compound Oc1ncnc2[nH]ncc12 [ALLOPURINOL] ): 80.8

The reported value for CCc1oc2ccccc2c1C(=O)c1cc(I)c(O)c(I)c1 [BENZIODARONE] in terms of Lym is 80

According to the records, this compound CC(=O)Oc1cc(C(C)C)c(OCCN(C)C)cc1C [MOXISYLYTE] displays Lym of 82.2

Lab note: CCSCC[C@H](N)C(=O)O [ETHIONINE] gave Lym of 79.2
